Assign IC50 to each entry below.
# assayed-target: KRAS G12C (Homo sapiens, UniProt P01116, G12C)
# Construct: KRAS G12C (amino acid region: 1-169)
# Sequence (P01116 1-169 isoform P01116-2 G12C): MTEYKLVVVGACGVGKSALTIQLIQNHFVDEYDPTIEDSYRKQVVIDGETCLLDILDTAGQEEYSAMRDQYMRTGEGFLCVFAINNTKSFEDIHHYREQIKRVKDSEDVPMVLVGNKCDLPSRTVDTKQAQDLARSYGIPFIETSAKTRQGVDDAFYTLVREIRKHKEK
# experiment-summary: Inhibitory activity on the KRAS G12C nucleotide (GDP-GTP) exchange reaction
# measurement-context: Bodipy FL GDP-bound KRAS G12C 25 nM; preincubation at 25° C. for 4 hours; SOS1 100 nM, GppNHp 1 μM, reaction for 30 minutes
Answers are plain numbers, in nM.

Worked cases, answers included:
compound: C=CC(=O)N1CC(NC(=O)c2c(Cl)nc(CNc3n[nH]c4cc(Cl)c(C(C)(C)C)cc34)n2[C@@H]2CCN(C(C)C)C2)C1
outcome-measure: IC50
value-observed: 7

compound: C=CC(=O)N1CC(NC(=O)c2c(C(F)F)nc(CNc3n[nH]c4cc(Cl)c(C(C)(C)C)cc34)n2CC2CCCN2C(C)C)C1 (stereo not drawn)
outcome-measure: IC50
value-observed: 44

Proceed to the following item.
I'd like to know its IC50. The compound in question is C=CC(=O)N1CC(NC(=O)c2c(Cl)nc(CNc3n[nH]c4cc(Cl)c(C(C)(C)C)cc34)n2[C@@H]2CCN(Cc3ccccc3)C2)C1 6

---

# assayed-target: KRAS G12C (Homo sapiens, UniProt P01116, G12C)
# Construct: KRAS G12C (amino acid region: 1-169)
# experiment-summary: Inhibitory activity on the KRAS G12C nucleotide (GDP-GTP) exchange reaction
# measurement-context: Bodipy FL GDP-bound KRAS G12C 25 nM; preincubation at 25° C. for 4 hours; SOS1 100 nM, GppNHp 1 μM, reaction for 30 minutes
outcome-measure: pIC50
One number for each entry, as −log10 of the molar value.

Guide cases for pIC50, answers given:
compound: C=CC(=O)N1CC(NC(=O)c2c(C)nc(CNc3n[nH]c4cc(Cl)c(C(C)(C)C)cc34)n2CCC)C1 [Example 19]
value-observed: 8.05
//
compound: C=CC(=O)N1CC(NC(=O)c2c(Cl)nc(CNc3n[nH]c4cc(Cl)c(C(C)(C)C)cc34)n2[C@@H]2CCN(CC(F)F)C2)C1 [Example 113]
value-observed: 8.30
//
compound: Cc1nc(CNc2n[nH]c3cc(Cl)c(C(C)(C)C)cc23)n(C)c1C(=O)NC1CN(C(=O)/C=C/CN(C)C)C1 [Example 80]
value-observed: 7.20
//
compound: C=CC(=O)N1CC(NC(=O)c2oc(CNc3n[nH]c4cc(Cl)c(C(C)(C)C)cc34)nc2C)C1 [Example 11]
value-observed: 5.97
//
compound: C=CC(=O)N1CC(NC(=O)c2cnc(CNc3n[nH]c4cc(Cl)c(CC)cc34)n2C)C1 [Example 39]
value-observed: 6.06

Dear colleague, could you send me pIC50 for each of the items below? Thanks.
1. C/C=C/C(=O)N1CC(NC(=O)c2c(C)nc(CNc3n[nH]c4cc(Cl)c(C(C)(C)C)cc34)n2C(C)C)C1 [Example 81]
2. C=CC(=O)N1CC(NC(=O)c2cnc(CNc3n[nH]c4cc(Cl)c(C)cc34)n2C)C1 [Example 37]
3. C=CC(=O)N1CC(NC(=O)c2c(Cl)nc(CNc3n[nH]c4cc(Cl)c(C(C)(C)C)cc34)n2[C@@H]2C[C@@H](O)[C@@H](O)C2)C1 [Example 99]
4. C=CC(=O)N1CC(NC(=O)c2c(Cl)nc(CNc3n[nH]c4cc(Cl)c(C5(C(F)(F)F)CC5)cc34)n2C(C)C)C1 [Example 44]

5.58
5.26
8.15
6.74

Could I get pIC50 for every one of these entries?
1. C=CC(=O)N1CC(NC(=O)c2c(Cl)nc(CNc3n[nH]c4cc(Cl)c(C(C)(C)C)cc34)n2C2CCCCC2)C1 [Example 109]
2. C=CC(=O)N1CC(NC(=O)c2c(Cl)nc(CNc3n[nH]c4cc(Cl)c(C(C)(C)C)cc34)n2C2CC=CC2)C1 [Example 98]
3. Cc1nc(CNc2n[nH]c3cc(Cl)c(C(C)(C)C)cc23)n(C(C)C)c1C(=O)NC1CN(C(=O)/C=C\Cl)C1 [Example 83]
4. C=CC(=O)N1CC(NC(=O)c2c(Cl)nc(CNc3n[nH]c4cc(Cl)c(C(C)(C)C)cc34)n2CC(F)F)C1 [Example 100]
5. C=CC(=O)N1CC(NC(=O)c2c(Cl)nc(CNc3n[nH]c4cc(Cl)c(C(C)(C)C)cc34)n2[C@@H]2C[C@@H](C)N(CC(F)F)C2)C1 [Example 126]

[7.64, 8.15, 5.63, 7.85, 8.40]

Below are 5 compounds. Give each one its pIC50.
1. C=CC(=O)N1CC(NC(=O)c2c(C(F)F)nc(CNc3n[nH]c4cc(Cl)c(C(C)(C)C)cc34)n2C(C)C)C1 [Example 33]
2. C=CC(=O)N1CC(NC(=O)c2c(F)nc(CNc3n[nH]c4cc(Cl)c(C(C)(C)C)cc34)n2C(C)C)C1 [Example 34]
3. C=CC(=O)N1CC(NC(=O)c2c(C)nc(CNc3n[nH]c4cc(C)c(C(C)(C)C)cc34)n2C)C1 [Example 41]
4. C=CC(=O)N1C[C@@H](C)[C@@H](NC(=O)c2c(C)nc(CNc3n[nH]c4cc(Cl)c(C(C)(C)C)cc34)n2C)C1 [Example 55]
5. C=CC(=O)N1CC(NC(=O)c2c(Br)nc(CNc3n[nH]c4cc(Cl)c(C(C)(C)C)cc34)n2C)C1 [Example 27]

7.89
7.89
7.85
7.62
8.10

---

# assayed-target: KRAS G12C (Homo sapiens, UniProt P01116, G12C)
# Construct: KRAS G12C (amino acid region: 1-169)
# experiment-summary: Inhibitory activity on the KRAS G12C nucleotide (GDP-GTP) exchange reaction
# measurement-context: Bodipy FL GDP-bound KRAS G12C 25 nM; preincubation at 25° C. for 4 hours; SOS1 100 nM, GppNHp 1 μM, reaction for 30 minutes
outcome-measure: pIC50
Give bare numbers, as −log10 of the molar value.

compound: C=CC(=O)N1CC(NC(=O)c2c(Cl)nc(CNc3n[nH]c4cc(Cl)c(C(C)(C)C)cc34)n2[C@H]2CCN(C(C)C)C2)C1 [Example 116]
pIC50: 8.10

I would be grateful if you could provide pIC50 for each of the following entries.
1. C=CC(=O)N1CC(NC(=O)c2c(Cl)nc(CNc3n[nH]c4cc(Cl)c(C(C)(C)C)cc34)n2[C@H]2CCN(CC(F)F)C2)C1 [Example 115]
2. C=CC(=O)N1CC(NC(=O)c2c(Cl)nc(CNc3n[nH]c4cc(Cl)c(C(C)(C)C)cc34)n2C2CN(C(C)C)C2)C1 [Example 107]
3. C=CC(=O)N1CC(NC(=O)c2c(Cl)nc(CNc3n[nH]c4cc(Cl)c(C(C)(C)C)cc34)n2C2CCCN(CC(F)F)C2)C1 (stereo not drawn) [Example 117]
4. C=CC(=O)N1CC(NC(=O)c2c(Cl)c(CNc3n[nH]c4cc(Cl)c(C(C)(C)C)cc34)nn2C)C1 [Example 6]

[8.15, 8.40, 8.05, 6.10]

So what does the record say about pIC50 for C=CCN1CC[C@@H](n2c(CNc3n[nH]c4cc(Cl)c(C(C)(C)C)cc34)nc(Cl)c2C(=O)NC2CN(C(=O)C=C)C2)C1 [Example 123] ? 8.05

---

# assayed-target: KRAS G12C (Homo sapiens, UniProt P01116, G12C)
# Construct: KRAS G12C (amino acid region: 1-169)
# experiment-summary: Inhibitory activity on the KRAS G12C nucleotide (GDP-GTP) exchange reaction
# measurement-context: Bodipy FL GDP-bound KRAS G12C 25 nM; preincubation at 25° C. for 4 hours; SOS1 100 nM, GppNHp 1 μM, reaction for 30 minutes
outcome-measure: IC50 (nM)
One number for each entry, in nM.

For orientation, consider the following solved cases.
compound: C=CC(=O)N1C[C@@H](COC)[C@@H](NC(=O)c2c(C)nc(CNc3n[nH]c4cc(Cl)c(C(C)(C)C)cc34)n2C)C1 [Example 67]
assayed-target: KRAS G12C (Homo sapiens, UniProt P01116, G12C)
IC50, nM: 24
--
compound: C=CC(=O)N1CC(NC(=O)c2c(Cl)nc(CNc3n[nH]c4cc(Cl)c(C(C)(C)C)cc34)n2[C@@H]2CCOC2)C1 [Example 102]
assayed-target: KRAS G12C (Homo sapiens, UniProt P01116, G12C)
IC50, nM: 5

Hi team, please reply with IC50 for each item in this list.
1. C=CC(=O)N1CC(NC(=O)c2c(Cl)nc(CNc3n[nH]c4cc(Cl)c(C(C)(C)C)cc34)n2CC2CCCC2)C1 [Example 110]
2. C=CC(=O)N1C[C@H](NC(=O)c2c(Cl)nc(CNc3n[nH]c4cc(Cl)c(C(C)(C)C)cc34)n2C)[C@@H](F)C1 [Example 76]
3. C=CC(=O)N1CC(NC(=O)c2c(C)nc(CNc3n[nH]c4cc(Cl)c(C(C)(C)C)cc34)n2C(F)F)C1 [Example 21]
4. C=CC(=O)N1C[C@@H](O)[C@@H](NC(=O)c2c(C)nc(CNc3n[nH]c4cc(Cl)c(C(C)(C)C)cc34)n2C)C1 [Example 56]
5. C=CC(=O)N1CC(NC(=O)c2cc(CNc3n[nH]c4cc(Cl)c(C(C)(C)C)cc34)nn2C)C1 [Example 9]

1: 9; 2: 13; 3: 58; 4: 198; 5: 3140

Entry C=CC(=O)N1C[C@H](NC(=O)c2c(C)nc(CNc3n[nH]c4cc(Cl)c(C(C)(C)C)cc34)n2C)[C@@H](OC)C1 [Example 63] has what IC50? 84
